Biological target: APJ (Homo sapiens)
Construct: expressed in transfected cells; host or cells: CHO (CHO-A10; clone 6 for the cAMP assay)
Sequence (P35414 1-380): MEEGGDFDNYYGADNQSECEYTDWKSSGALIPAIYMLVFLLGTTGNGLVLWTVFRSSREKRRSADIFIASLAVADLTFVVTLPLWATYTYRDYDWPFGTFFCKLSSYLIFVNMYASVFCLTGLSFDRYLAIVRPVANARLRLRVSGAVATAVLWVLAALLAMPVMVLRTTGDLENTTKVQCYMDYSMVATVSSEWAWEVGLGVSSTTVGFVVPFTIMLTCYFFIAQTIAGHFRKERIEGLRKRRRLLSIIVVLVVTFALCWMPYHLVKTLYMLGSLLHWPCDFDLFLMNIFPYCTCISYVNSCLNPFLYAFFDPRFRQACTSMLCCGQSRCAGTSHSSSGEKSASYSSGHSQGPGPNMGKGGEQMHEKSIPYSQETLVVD
Assay: Receptor binding assay-2 (compound in Reference Example 2 used)
Details: compound in Reference Example 2 used as ligand; read-out: IC50
Non-standard residues stand in square brackets, D forms with d. Residues, ends and D or L forms follow the SMILES beside them. Phe(4-Cl) = N[C@@H](Cc1ccc(Cl)cc1)C(=O)O; Cha = N[C@@H](CC1CCCCC1)C(=O)O
Quantity Name: IC50 (nM)
Number only, in nM; omit the unit.

Entry C[C@H](NC(=O)[C@H](CCCNC(=N)N)NC(=O)[C@@H]1CCCN1C(=O)[C@@H](N)CCCNC(=N)N)C(=O)N[C@@H](CO)C(=O)N[C@@H](Cc1c[nH]cn1)C(=O)N[C@@H](CCCCN)C(=O)NCC(=O)N1CCC[C@H]1C(=O)N[C@@H](CC1CCCCC1)C(=O)N1CCC[C@H]1C(=O)N[C@@H](Cc1ccc(Cl)cc1)C(=O)O [Compound in Ex. 57] (H-RPRASHKGP[Cha]P[Phe(4-Cl)]-OH; N-terminus and C-terminus assumed) has what IC50?
0.17

Quick one: IC50 for CSCC[C@H](NC(=O)[C@@H]1CCCN1C(=O)CNC(=O)[C@H](CCCCN)NC(=O)[C@H](CC(C)C)NC(=O)[C@H](CO)NC(=O)[C@H](CC(C)C)NC(=O)[C@H](CCCNC(=N)N)NC(=O)[C@@H]1CCCN1C(=O)[C@H](CCCNC(=N)N)NC(=O)[C@@H]1CCC(=O)N1)C(=O)N1CCC[C@H]1C(=O)N[C@@H](Cc1ccccc1)C(=O)O ?
0.59

Item under review: CSCC[C@H](NC(=O)[C@@H]1CCCN1C(=O)CNC(=O)[C@H](CCCNC(=N)N)NC(=O)[C@H](C)NC(=O)[C@H](CO)NC(=O)[C@H](CC(C)C)NC(=O)[C@H](CCCNC(=N)N)NC(=O)[C@@H]1CCCN1C(=O)[C@@H](N)CCCNC(=N)N)C(=O)N1CCC[C@H]1C(=O)N[C@@H](Cc1ccc(Cl)cc1)C(=O)O [Compound in Ex. 3] (H-RPRLSARGPMP[Phe(4-Cl)]-OH; N-terminus and C-terminus assumed) . Reported IC50?
0.036

----------
Target: APJ (Homo sapiens)
Construct: expressed in transfected cells; host or cells: CHO (CHO-A10; clone 6 for the cAMP assay)
Sequence (P35414 1-380): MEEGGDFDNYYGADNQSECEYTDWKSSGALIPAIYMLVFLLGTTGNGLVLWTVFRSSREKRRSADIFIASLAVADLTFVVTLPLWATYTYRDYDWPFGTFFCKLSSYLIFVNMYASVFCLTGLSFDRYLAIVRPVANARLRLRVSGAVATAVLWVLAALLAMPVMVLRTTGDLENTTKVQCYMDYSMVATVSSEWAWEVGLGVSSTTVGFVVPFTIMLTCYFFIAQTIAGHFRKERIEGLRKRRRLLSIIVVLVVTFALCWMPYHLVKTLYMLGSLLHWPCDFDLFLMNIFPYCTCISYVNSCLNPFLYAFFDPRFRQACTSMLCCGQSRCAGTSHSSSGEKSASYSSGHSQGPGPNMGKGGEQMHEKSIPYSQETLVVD
Experiment: Receptor binding assay-1 (125I-labeled compound in Reference Example 1, CHO-A10 membrane fraction)
Conditions: 125I-labeled compound in Reference Example 1 at 100 pM, room temperature […]
Protocol: This product was mixed with an equal volume of an assay buffer (50 mM Tris-HCl/pH 7.5, 5 mM EDTA, 0.5 mM PMSF, 20 μg/ml leupeptin, 0.1 μg/ml pepstatin A, 4 μg/ml E-64 (Peptide Research Laboratory, Co.), 0.1% bovine serum albumin) and stored at −30° C. before use. CHO-A10 cells were cultured, recovered with PBS containing 5 mM EDTA from a culture vessel, and suspended in the above-mentioned assay buffer not containing bovine serum albumin. […]
Quantity Name: pIC50
Just so you know, pIC50 here is -log10 of the concentration in molar units; reply with that number alone.

What reported pIC50 corresponds to CSCC[C@H](NC(=O)[C@@H]1CCCN1C(=O)CNC(=O)[C@H](CCCCN)NC(=O)[C@H](Cc1c[nH]cn1)NC(=O)[C@H](CO)NC(=O)[C@H](CC(C)C)NC(=O)[C@H](CCCNC(=N)N)NC(=O)[C@@H]1CCCN1C(=O)[C@H](CCCNC(=N)N)NC(=O)[C@H](CCCCNC(=O)[C@H](CCCNC(=N)N)NC(=O)[C@@H](N)CCCNC(=N)N)NC(=O)[C@H](CCCNC(=N)N)NC(=O)[C@@H](N)CCCNC(=N)N)C(=O)N1CCC[C@H]1C(=O)N[C@@H](Cc1ccccc1)C(=O)O on APJ (Homo sapiens)?
8.54
